# measured.on: c-fms (Homo sapiens, UniProt P07333)
# Sequence (P07333 20-972): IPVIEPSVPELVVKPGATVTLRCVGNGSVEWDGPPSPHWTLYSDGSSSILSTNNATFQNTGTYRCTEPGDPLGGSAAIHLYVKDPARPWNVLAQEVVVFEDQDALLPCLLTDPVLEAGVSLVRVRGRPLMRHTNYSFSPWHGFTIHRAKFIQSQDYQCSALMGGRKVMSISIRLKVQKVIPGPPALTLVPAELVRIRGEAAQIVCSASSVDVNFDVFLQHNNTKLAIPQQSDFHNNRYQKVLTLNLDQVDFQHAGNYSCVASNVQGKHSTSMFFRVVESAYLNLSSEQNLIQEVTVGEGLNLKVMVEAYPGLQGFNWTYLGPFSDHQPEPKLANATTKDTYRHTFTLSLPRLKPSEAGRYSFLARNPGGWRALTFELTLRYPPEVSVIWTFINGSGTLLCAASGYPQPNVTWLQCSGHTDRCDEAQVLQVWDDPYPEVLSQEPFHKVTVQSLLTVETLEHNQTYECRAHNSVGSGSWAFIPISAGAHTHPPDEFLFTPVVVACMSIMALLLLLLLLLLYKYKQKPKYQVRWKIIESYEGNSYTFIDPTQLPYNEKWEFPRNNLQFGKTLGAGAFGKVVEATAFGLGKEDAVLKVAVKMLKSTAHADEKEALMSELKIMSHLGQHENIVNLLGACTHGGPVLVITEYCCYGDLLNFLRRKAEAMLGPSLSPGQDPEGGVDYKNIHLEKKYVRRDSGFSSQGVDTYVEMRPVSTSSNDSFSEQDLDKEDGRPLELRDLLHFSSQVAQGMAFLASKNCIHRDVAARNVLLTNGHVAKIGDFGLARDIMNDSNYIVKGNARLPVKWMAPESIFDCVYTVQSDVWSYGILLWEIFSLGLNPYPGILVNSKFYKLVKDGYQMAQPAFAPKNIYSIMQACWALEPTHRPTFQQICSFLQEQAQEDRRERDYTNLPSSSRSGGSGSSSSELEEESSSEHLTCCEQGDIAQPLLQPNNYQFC
# test.details: autophosphorylation, fluorescence polarization competition immunoassay for c-fms inhibition
# Type: biochemical
# condition: read-out: c-fins IC50
endpoint.label: pIC50
Give bare numbers, as −log10 of the molar value.

get_value(item= `Cc1ccsc1-c1cc(N2CCN(C)CC2)ccc1NC(=O)c1ccc(C#N)o1` , readout=pIC50) returns 6.33

====

# measured.on: c-fms (Homo sapiens)
# test.details: autophosphorylation, fluorescence polarization competition immunoassay for c-fms inhibition
# Assay type: biochemical
# condition: 10 nM c-fms, 1 mM ATP, 5 mM MgCl2, 2% DMSO, 45 min at room temperature; averages of three independent measurements; read-out: c-fins IC50
Counter-ions that a name gives are not always drawn.
endpoint.label: pIC50
Numbers only, as −log10 of the molar value.

Worked examples follow.
[[record]]
molecule = "N#Cc1c[nH]c(C(=O)Nc2ccc(C3CCS(=O)(=O)CC3)cc2C2=CCCCC2)n1"
endpoint_label = "pIC50"
reported_measurement = 8.54

[[record]]
molecule = "C[C@H]1CC(c2ccc(NC(=O)c3ncc(C#N)[nH]3)c(C3=CCCCC3)c2)C[C@H](C)N1 (stereo partly shown) [Example 51b, bis trifluoroacetic acid salt]"
endpoint_label = "pIC50"
reported_measurement = 9.40

[[record]]
molecule = "CC(=O)N1CCC(c2ccc(NC(=O)c3cc(C#N)c[nH]3)c(C3=CCCCC3)c2)CC1"
endpoint_label = "pIC50"
reported_measurement = 7.55

[[record]]
molecule = "Cc1ccccc1-c1cc(N2CCN(C)CC2)ccc1NC(=O)c1ccc(C#N)o1"
endpoint_label = "pIC50"
reported_measurement = 6.20


Report pIC50 for each item below.
1. CN1CCN(c2ccc(NC(=O)c3ccc(C#N)o3)c(-c3ccccc3F)c2)CC1
2. O=C(Nc1ccc(C2CCNCC2)cc1C1=CCCCC1)c1nnc(Cl)[nH]1 [Example 50, trifluoroacetic acid salt]

6.05
7.22

get_value(item= C[C@@H]1CC(c2ccc(NC(=O)c3ncc(C#N)[nH]3)c(C3=CCCCC3)c2)C[C@H](C)N1 (stereo partly shown) [Example 51a, bis trifluoroacetic acid salt] , readout=pIC50) returns 9.70

====

Task for the reader: assign each of the following molecules its reported IC50.
# measured.on: c-fms (Homo sapiens, UniProt P07333)
# test.details: autophosphorylation, fluorescence polarization competition immunoassay for c-fms inhibition
# Format: biochemical
# condition: 10 nM c-fms, 1 mM ATP, 5 mM MgCl2, 2% DMSO, 45 min at room temperature; averages of three independent measurements; read-out: c-fins IC50
# Method: The assay buffer used was 100 mM 4-(2-hydroxyethyl)piperazine 1-ethanesulfonic acid (HEPES), pH 7.5, 1 mM 1,4-dithio-DL-threitol (DTT), 0.01% (v/v) Tween-20. Compounds were diluted in assay buffer containing 4% dimethylsulfoxide (DMSO) just prior to the assay. […] The plates were incubated at room temperature for 45 min. […] The plate was covered, incubated for 30 min at room temperature and the fluorescence polarization was read on the Analyst. […]
Where a name gives a salt, the structure may show the parent alone.

Worked examples follow.
[[record]]
molecule = "CC1CC=C(c2cc(C3CCN(Cc4ccccn4)CC3)ccc2NC(=O)c2nc(C#N)c[nH]2)CC1 (stereo not drawn) [Example 22, trifluoroacetic acid salt]"
measured_on = "c-fms (Homo sapiens, UniProt P07333)"
endpoint_label = "IC50"
reported_measurement = "1.4 nM"

[[record]]
molecule = "CC(=O)N1CCC(c2ccc(NC(=O)c3nc(C#N)c[nH]3)c(C3=CCS(=O)(=O)CC3)c2)CC1 [Example 37]"
measured_on = "c-fms (Homo sapiens, UniProt P07333)"
endpoint_label = "IC50"
reported_measurement = "60 nM"

[[record]]
molecule = "CN(C)CC(=O)N1CCC(c2ccc(NC(=O)c3nc(C#N)c[nH]3)c(C3=CCC(C)(C)CC3)n2)CC1 [Example 55, trifluoroacetic acid salt]"
measured_on = "c-fms (Homo sapiens, UniProt P07333)"
endpoint_label = "IC50"
reported_measurement = "0.7 nM"

[[record]]
molecule = "N#Cc1c[nH]c(C(=O)Nc2ccc(C3CCNCC3)cc2C2=CCCCC2)c1 [Example 13, trifluoroacetic acid salt]"
measured_on = "c-fms (Homo sapiens, UniProt P07333)"
endpoint_label = "IC50"
reported_measurement = "12 nM"

[[record]]
molecule = "CON1CCC(c2ccc(NC(=O)c3ncc(C#N)[nH]3)c(C3=CCCCC3)c2)CC1 [Example 53, trifluoroacetic acid salt]"
measured_on = "c-fms (Homo sapiens, UniProt P07333)"
endpoint_label = "IC50"
reported_measurement = "5.3 nM"


Proceed to the following item.
get_value(item= CC1(C)CC=C(c2nc(C3CCNCC3)ccc2NC(=O)c2nc(C#N)c[nH]2)CC1 [Example 54, trifluoroacetic acid salt] , readout=IC50) returns 0.8 nM
